systemUnderTest: N-type calcium channel subunits (α1B, α2δ, and β3a) (Homo sapiens, UniProt Q00975)
Sequence (Q00975 whole entry): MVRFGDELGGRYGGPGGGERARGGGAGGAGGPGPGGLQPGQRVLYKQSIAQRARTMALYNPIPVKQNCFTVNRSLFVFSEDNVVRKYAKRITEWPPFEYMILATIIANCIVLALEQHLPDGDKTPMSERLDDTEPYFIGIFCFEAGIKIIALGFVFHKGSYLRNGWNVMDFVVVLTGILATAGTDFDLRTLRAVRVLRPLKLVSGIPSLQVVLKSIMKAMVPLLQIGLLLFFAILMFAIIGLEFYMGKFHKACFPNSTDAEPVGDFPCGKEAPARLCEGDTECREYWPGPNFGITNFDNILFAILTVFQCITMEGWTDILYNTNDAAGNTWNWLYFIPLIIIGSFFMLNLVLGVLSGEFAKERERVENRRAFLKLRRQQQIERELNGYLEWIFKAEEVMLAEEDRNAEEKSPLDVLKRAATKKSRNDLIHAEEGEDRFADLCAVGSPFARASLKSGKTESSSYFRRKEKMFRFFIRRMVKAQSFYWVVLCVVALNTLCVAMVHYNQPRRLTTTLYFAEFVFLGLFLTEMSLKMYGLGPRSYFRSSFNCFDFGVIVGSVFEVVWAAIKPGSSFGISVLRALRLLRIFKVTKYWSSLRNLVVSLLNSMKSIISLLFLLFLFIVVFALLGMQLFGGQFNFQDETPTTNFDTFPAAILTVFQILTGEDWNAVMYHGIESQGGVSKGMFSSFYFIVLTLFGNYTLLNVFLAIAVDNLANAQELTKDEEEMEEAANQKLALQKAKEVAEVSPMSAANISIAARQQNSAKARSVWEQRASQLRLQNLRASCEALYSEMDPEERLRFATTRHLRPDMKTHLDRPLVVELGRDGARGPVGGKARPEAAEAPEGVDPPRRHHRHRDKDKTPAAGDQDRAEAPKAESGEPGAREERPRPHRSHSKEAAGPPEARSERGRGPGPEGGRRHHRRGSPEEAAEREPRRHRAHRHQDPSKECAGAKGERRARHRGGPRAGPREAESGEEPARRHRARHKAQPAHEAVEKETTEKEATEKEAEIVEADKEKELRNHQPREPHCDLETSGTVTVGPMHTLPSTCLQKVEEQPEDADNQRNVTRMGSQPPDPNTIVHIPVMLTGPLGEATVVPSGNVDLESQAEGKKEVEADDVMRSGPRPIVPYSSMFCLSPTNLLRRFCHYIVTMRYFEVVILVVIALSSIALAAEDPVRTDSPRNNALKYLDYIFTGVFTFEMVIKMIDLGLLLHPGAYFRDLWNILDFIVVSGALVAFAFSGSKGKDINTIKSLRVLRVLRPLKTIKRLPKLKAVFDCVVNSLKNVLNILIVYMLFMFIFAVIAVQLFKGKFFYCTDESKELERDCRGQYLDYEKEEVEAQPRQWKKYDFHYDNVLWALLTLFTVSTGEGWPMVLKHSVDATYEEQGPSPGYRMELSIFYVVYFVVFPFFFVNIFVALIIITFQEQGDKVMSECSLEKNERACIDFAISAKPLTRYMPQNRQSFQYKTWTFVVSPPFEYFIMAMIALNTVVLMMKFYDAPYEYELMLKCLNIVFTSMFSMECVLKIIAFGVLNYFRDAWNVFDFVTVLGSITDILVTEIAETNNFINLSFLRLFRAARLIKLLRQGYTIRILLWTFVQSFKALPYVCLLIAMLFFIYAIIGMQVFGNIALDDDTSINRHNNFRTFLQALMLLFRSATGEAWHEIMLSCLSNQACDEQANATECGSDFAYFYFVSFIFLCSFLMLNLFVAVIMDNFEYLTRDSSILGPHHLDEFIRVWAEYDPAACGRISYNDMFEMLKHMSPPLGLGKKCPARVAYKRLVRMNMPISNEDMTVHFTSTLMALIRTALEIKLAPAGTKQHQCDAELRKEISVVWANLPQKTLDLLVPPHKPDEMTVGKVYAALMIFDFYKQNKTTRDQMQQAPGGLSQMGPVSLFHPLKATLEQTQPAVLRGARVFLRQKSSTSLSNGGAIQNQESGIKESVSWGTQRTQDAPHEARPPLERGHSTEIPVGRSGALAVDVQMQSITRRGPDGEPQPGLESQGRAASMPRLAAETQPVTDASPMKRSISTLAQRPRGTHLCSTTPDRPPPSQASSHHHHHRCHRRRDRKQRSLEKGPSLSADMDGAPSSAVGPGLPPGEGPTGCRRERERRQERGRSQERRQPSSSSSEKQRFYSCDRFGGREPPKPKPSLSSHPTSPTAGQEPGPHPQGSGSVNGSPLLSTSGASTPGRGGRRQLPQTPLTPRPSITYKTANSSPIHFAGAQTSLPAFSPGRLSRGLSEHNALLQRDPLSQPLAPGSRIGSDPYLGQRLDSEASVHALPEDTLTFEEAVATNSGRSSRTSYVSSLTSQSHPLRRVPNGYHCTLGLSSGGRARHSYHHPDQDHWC
Sequence (P54289 25-1103 partner): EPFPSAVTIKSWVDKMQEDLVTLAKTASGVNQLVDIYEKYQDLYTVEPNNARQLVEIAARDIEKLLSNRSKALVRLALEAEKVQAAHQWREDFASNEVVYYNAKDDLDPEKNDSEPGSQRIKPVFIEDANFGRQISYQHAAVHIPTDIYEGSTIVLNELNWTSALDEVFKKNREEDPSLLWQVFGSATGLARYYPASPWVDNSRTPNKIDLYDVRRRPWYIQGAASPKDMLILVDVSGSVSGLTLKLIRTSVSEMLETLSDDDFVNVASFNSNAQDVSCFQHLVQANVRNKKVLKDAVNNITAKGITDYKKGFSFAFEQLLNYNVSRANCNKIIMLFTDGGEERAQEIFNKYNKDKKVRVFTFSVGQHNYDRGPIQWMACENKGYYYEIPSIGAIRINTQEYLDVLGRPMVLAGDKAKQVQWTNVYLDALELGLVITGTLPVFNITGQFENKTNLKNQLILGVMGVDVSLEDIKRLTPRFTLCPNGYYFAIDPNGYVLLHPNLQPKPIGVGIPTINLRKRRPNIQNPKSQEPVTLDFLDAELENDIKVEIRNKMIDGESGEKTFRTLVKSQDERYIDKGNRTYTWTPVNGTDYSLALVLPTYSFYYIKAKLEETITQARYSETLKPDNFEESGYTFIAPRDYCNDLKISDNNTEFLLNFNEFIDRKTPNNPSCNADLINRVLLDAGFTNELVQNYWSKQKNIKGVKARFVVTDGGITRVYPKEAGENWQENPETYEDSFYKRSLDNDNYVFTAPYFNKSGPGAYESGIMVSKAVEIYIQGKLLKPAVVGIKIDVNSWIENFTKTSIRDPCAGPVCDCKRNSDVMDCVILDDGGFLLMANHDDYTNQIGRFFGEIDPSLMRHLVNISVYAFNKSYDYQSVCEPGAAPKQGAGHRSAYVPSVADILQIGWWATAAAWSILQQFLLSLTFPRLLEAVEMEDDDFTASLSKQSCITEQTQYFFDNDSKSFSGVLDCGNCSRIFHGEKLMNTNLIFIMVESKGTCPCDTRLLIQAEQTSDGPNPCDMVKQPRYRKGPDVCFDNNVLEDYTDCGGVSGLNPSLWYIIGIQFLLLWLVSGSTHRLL
Sequence (P54284 whole entry partner): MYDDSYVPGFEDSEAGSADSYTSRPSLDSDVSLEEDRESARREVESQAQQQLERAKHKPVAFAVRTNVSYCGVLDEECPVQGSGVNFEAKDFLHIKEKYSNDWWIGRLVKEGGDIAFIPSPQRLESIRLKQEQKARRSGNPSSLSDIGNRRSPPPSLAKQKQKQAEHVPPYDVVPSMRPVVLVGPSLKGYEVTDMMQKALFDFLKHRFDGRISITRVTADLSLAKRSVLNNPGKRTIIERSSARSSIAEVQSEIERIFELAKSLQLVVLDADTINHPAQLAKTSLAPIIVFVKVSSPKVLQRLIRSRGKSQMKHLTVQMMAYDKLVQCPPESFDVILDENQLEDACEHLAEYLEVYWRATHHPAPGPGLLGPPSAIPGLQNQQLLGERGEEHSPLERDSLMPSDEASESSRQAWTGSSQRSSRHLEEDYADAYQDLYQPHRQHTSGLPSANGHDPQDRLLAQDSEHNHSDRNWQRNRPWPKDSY
assayInfo: Block of Cav2.2 channel, whole cell voltage clamp, manual and PatchXpress
Format: cell-based
conditionDetails: Table 5; table follows Assay Example 3 (whole cell voltage clamp / PatchXpress); assay not given
endpointLabel: IC50 (nM)

Here is how some compounds turned out for IC50.
compound	IC50, nM
COc1cc(C(=O)NC[C@H]2C[C@@H](S(=O)(=O)c3cccc(C(F)(F)F)c3)C2)cc(Cl)n1 [Compound 380]	1470
Cn1nc(C(F)(F)F)cc1C(=O)NCC1(C)CCC(F)(S(=O)(=O)c2cccc(C(F)(F)F)c2)CC1 (stereo not shown) [Compound 151]	580
O=C(N[C@H]1CC[C@@](F)(S(=O)(=O)c2cccc(C(F)(F)F)c2)CC1)c1cc(F)cc(Cl)c1 [Compound 86]	190
O=C(Nc1ncccc1C(F)(F)F)[C@H]1C[C@@H](S(=O)(=O)c2cccc(C(F)(F)F)c2)C1 [Compound 414]	1360

a = Cn1cnc(S(=O)(=O)N[C@H]2CC[C@@](F)(S(=O)(=O)c3cccc(C(F)(F)F)c3)CC2)c1 [Compound 296]
b = CC(C)([C@H]1C[C@H](NC(=O)c2cnc(C(F)(F)F)nc2)C1)S(=O)(=O)c1cccc(C(F)(F)F)c1 [Compound 437]
c = CN(C(=O)CNC1CCC(S(=O)(=O)c2cccc(C(F)(F)F)c2)CC1)C(C)(C)C (stereo not shown) [Compound 23]
rank_up(items): orders items by reported IC50 in ascending numerical order. Dear reader, please state the labels in the requested order.
c, b, a
